Molecular target: hM1 (Homo sapiens)
Construct: expressed in transfected cells; host or cells: CHO
Sequence (P11229 1-460): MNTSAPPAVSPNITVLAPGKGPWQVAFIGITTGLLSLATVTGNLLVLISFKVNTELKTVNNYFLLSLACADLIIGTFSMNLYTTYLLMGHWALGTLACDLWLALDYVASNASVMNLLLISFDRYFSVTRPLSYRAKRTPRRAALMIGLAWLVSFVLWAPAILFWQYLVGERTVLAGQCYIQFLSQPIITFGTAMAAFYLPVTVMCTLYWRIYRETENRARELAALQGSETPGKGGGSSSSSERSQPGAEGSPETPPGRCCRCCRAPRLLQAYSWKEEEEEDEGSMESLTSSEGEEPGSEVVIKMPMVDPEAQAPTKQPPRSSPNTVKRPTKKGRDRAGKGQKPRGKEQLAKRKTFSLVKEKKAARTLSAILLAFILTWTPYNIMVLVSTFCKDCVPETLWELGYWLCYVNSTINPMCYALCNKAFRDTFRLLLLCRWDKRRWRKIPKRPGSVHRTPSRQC
Assay: FLIPR intracellular calcium assay for modulator activity at the muscarinic M1 receptor in CHO human M1 cells
Type: cell-based
observation_type: pIC50
Quick note: pIC50 values are minus log10 of concentrations in mol/L.

Known pIC50 results, listed for orientation:
INSERT INTO assay_data (molecule, tested_system, observation_type, numeric_value) VALUES
  ('CC(C)[C@@H]1N=C(c2ccccc2)c2cc(-c3ccccc3)ccc2NC1=S', 'hM1 (Homo sapiens)', 'pIC50', 5.83),
  ('S=C1Nc2ccc(Cl)cc2C(c2ccccc2)=NC1c1ccccc1 (stereo not shown)', 'hM1 (Homo sapiens)', 'pIC50', 6.10),
  ('CC1N=C(c2ccccc2)c2cc([N+](=O)[O-])ccc2NC1=S (stereo not shown)', 'hM1 (Homo sapiens)', 'pIC50', 6.14);

# pIC50 lookup, item Fc1ccccc1C1=N[C@@H](c2ccccc2)C(=S)Nc2ccc(Cl)cc21
5.83
